Assay Target: recombinant protein containing the human ENPP1 enzymatic domain (Homo sapiens)
Construct: recombinant protein containing the human ENPP1 enzymatic domain
Sequence (P22413 191-591 limits assumed): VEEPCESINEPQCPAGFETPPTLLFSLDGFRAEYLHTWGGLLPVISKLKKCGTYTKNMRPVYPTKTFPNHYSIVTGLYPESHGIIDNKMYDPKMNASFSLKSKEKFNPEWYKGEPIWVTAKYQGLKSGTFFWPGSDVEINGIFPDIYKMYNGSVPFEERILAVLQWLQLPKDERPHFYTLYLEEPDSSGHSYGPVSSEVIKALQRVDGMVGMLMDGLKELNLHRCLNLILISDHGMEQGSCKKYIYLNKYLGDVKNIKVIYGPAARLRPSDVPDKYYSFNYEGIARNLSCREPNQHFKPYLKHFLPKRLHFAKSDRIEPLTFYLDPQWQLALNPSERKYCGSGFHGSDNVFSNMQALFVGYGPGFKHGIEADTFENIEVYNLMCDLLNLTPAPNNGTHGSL
Test Protocol: ENPP1 Enzymatic Inhibition Assay (2′3′-cGAMP substrate, AMP-Glo luminescence)
Stated Conditions: 1 nM ENPP1, 20 uM 2′3′-cGAMP substrate, 30 minutes at 37° C.
Observed Property: IC50

Reference set (3 entries):
Molecule: COc1ccc2c(Oc3ccc(S(N)(=O)=NC[C@@H]4CCCN4)cc3)ccnc2c1 (stereo partly shown)
Assay Target: recombinant protein containing the human ENPP1 enzymatic domain (Homo sapiens)
IC50: 10 to 100 nM

Molecule: COc1ccc2c(Oc3ccc(S(N)(=O)=NCCO)cc3)ccnc2c1 (stereo not shown)
Assay Target: recombinant protein containing the human ENPP1 enzymatic domain (Homo sapiens)
IC50: 10 to 100 nM

Molecule: COc1ccc2c(Oc3ccc(S(=N)(=O)N4CCCC4)cc3)ccnc2c1 (stereo not shown)
Assay Target: recombinant protein containing the human ENPP1 enzymatic domain (Homo sapiens)
IC50: > 100 nM

Input line: What value of IC50 has been reported for the following molecule? COc1ccc2c(Oc3ccc(S(N)(=O)=Nc4ccccc4)cc3)ccnc2c1 (stereo not shown)
Output line: 10 to 100 nM

Input line: Fill in the blank: the reported IC50 of COc1ccc2c(Oc3ccc(S(N)(=O)=NCCNC(C)=O)cc3)ccnc2c1 (stereo not shown) is ____.
Output line: < 10 nM

Input line: Which value of IC50 has been reported for CCN(CC)S(=N)(=O)c1ccc(Oc2ccnc3cc(OC)ccc23)cc1 (stereo not shown) in the records?
Output line: > 100 nM

Input line: Can you look up the measured IC50 of COc1ccc2c(Oc3ccc(S(N)(=O)=NCc4nccs4)cc3)ccnc2c1 (stereo not shown) for me?
Output line: < 10 nM

Input line: Any idea what IC50 was measured for COc1ccc2c(Oc3ccc(S(N)(=O)=NCC(F)(F)F)cc3)ccnc2c1 (stereo not shown) ?
Output line: < 10 nM
